Each recorded value in this set is attributed to paper PMC8151276.

- testedOn: RXFP3 (Homo sapiens, UniProt Q9NSD7)
- Construct: purchased Promega (in-house HiBiT-GPCR construct library, NanoBRET)
- Sequence (Q9NSD7 whole entry): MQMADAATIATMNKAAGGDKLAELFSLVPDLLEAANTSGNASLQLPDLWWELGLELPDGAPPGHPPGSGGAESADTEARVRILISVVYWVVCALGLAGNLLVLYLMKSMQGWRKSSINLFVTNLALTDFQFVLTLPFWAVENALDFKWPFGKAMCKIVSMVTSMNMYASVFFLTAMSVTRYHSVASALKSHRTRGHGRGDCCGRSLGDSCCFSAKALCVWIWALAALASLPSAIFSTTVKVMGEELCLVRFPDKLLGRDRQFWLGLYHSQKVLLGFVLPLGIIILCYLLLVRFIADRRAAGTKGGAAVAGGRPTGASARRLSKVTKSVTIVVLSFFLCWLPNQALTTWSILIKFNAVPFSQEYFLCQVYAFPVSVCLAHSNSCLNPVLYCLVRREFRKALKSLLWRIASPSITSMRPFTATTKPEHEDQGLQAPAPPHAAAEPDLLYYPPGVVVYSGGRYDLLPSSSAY
- methodNotes: NanoBRET screen HiBiT-RXFP3 in HEK293
- Format: binding
- conditionDescription: RXFP3; tracer 1μM
Answer n if NanoBRET Fold Response is under 1, and y if it is 1 or more.

>  <compound>
CC(C)N(CC[C@H](c1ccccc1)c1cc(CCNC(=O)c2ccc(CNC(=O)CCc3ccc4n3[B-](F)(F)[N+]3=C(c5ccc[nH]5)C=CC3=C4)cc2)ccc1O)C(C)C

>  <testedOn>
RXFP3 (Homo sapiens, UniProt Q9NSD7)

>  <assignedClass>
y

$$$$
>  <compound>
O=C(CCc1ccc2n1[B-](F)(F)[N+]1=C(c3ccc[nH]3)C=CC1=C2)NCCOCCOCCNC(=O)OCCOCCN1CCN(C2=Nc3ccccc3Sc3ccccc32)CC1

>  <testedOn>
RXFP3 (Homo sapiens, UniProt Q9NSD7)

>  <assignedClass>
n

$$$$
>  <compound>
Cc1cc2c(s1)Nc1ccccc1N=C2N1CCN(CCCNC(=O)CCOCCOCCOCCOCCNC(=O)CCc2ccc3n2[B-](F)(F)[N+]2=C(c4ccc[nH]4)C=CC2=C3)CC1

>  <testedOn>
RXFP3 (Homo sapiens, UniProt Q9NSD7)

>  <assignedClass>
y

$$$$
>  <compound>
O=C(CCOCCOCCOCCOCCNC(=O)CCc1ccc2n1[B-](F)(F)[N+]1=C(c3ccc[nH]3)C=CC1=C2)NCCCN1CCN(C2=Nc3ccccc3Oc3ccc(Cl)cc32)CC1

>  <testedOn>
RXFP3 (Homo sapiens, UniProt Q9NSD7)

>  <assignedClass>
y

$$$$
>  <compound>
CC(C)N(CC[C@H](c1ccccc1)c1cc(CCNC(=O)CCOCCOCCOCCOCCNC(=O)CCc2ccc3n2[B-](F)(F)[N+]2=C(c4ccc[nH]4)C=CC2=C3)ccc1O)C(C)C

>  <testedOn>
RXFP3 (Homo sapiens, UniProt Q9NSD7)

>  <assignedClass>
y

$$$$
>  <compound>
CCCn1c(=O)c2[nH]c(-c3ccc(OCC(=O)NCCNC(=O)CCOCCNC(=O)c4ccc(CNC(=O)CCc5ccc6n5[B-](F)(F)[N+]5=C(c7ccc[nH]7)C=CC5=C6)cc4)cc3)nc2n(CCC)c1=O

>  <testedOn>
RXFP3 (Homo sapiens, UniProt Q9NSD7)

>  <assignedClass>
n

$$$$
>  <compound>
N#CN=C(NCCCOc1cccc(CN2CCCCC2)c1)NCCNC(=O)CCOCCOCCOCCOCCNC(=O)CCc1ccc2n1[B-](F)(F)[N+]1=C(c3ccc[nH]3)C=CC1=C2

>  <testedOn>
RXFP3 (Homo sapiens, UniProt Q9NSD7)

>  <assignedClass>
n

$$$$
>  <compound>
COc1ccccc1N1CCN(CCCCN2C(=O)c3ccc(CNC(=O)CCOCCNC(=O)c4ccc(CNC(=O)CCc5ccc6n5[B-](F)(F)[N+]5=C(c7ccc[nH]7)C=CC5=C6)cc4)cc3C2=O)CC1

>  <testedOn>
RXFP3 (Homo sapiens, UniProt Q9NSD7)

>  <assignedClass>
n

$$$$
>  <compound>
O=C(CCc1ccc2n1[B-](F)(F)[N+]1=C(c3ccc[nH]3)C=CC1=C2)NCc1ccc(C(=O)NCCOCCC(=O)N[C@@H]2CC[C@@]3(O)[C@H]4Cc5ccc(O)c6c5[C@@]3(CCN4CC3CC3)[C@H]2O6)cc1 [Naltrexone-3-NB590]

>  <testedOn>
RXFP3 (Homo sapiens, UniProt Q9NSD7)

>  <assignedClass>
y

$$$$
